Target: human FAAH (Homo sapiens, UniProt O00519)
Sequence (O00519 1-579): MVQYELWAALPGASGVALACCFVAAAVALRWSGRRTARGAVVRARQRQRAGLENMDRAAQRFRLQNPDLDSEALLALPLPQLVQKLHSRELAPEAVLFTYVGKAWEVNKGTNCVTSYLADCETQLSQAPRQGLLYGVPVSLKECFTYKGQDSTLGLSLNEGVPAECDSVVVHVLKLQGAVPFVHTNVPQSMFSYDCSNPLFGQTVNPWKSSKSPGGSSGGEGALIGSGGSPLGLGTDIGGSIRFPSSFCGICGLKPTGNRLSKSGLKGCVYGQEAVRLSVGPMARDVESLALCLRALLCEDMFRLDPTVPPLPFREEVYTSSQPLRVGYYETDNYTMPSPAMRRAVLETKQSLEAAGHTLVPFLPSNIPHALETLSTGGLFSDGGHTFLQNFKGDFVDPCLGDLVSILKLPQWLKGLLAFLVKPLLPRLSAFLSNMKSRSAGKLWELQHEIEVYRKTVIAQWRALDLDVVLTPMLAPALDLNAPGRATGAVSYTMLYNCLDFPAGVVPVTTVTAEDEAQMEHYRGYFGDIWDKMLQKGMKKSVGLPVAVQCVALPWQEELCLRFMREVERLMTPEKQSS
Test: FAAH inhibition assay
Assay type: biochemical
quantity: IC50

// worked examples, IC50 included
O=C(Nc1ccc(-c2nnnn2C2CC2)cc1)C1CCN(S(=O)(=O)c2ccccc2Cl)CC1    > 10000 nM
O=C(Nc1ccc(-c2cnc(Cl)nc2)cc1)C1CCN(S(=O)(=O)c2ccccc2Cl)CC1    258 nM
O=C(Nc1ccc(-c2ncc(Cl)cn2)cc1)C1CCN(S(=O)(=O)c2ccccc2Cl)CC1    460 nM
O=C(Nc1ccc(-c2nnn[nH]2)cc1)C1CCN(S(=O)(=O)c2ccccc2Cl)CC1    > 10000 nM
Cc1cnc(-c2ccc(NC(=O)C3CCN(S(=O)(=O)c4ccccc4Cl)CC3)cc2)nc1    308 nM

The compound listed as COc1ncc(-c2ccc(NC(=O)C3CCN(S(=O)(=O)c4ccccc4Cl)CC3)cc2)cn1 shows IC50 equal to 462 nM

Sample O=C(Nc1ccc(-c2ncc(F)cn2)cc1)C1CCN(S(=O)(=O)c2ccccc2Cl)CC1 ; IC50 observed: 290 nM
